I'd be grateful if you could share measured pKd for these entries.
# TGT: T1, P17-His protein (human CD40 antigen) (human, UniProt P25942 21-193, limits assumed)
# T1 construct: also called human CD40 antigen (P17-His)
# EXPERIMENT_NOTES: BLI (Fortebio Octet RED96), antibody on Protein A sensor, P17-His 5-40 nM
# Experimental: In this example, the affinity of C8 parent antibody (C8-WT) and affinity variant antibody for human CD40 antigen (P17-His) was detected using an Fortebio Octet RED96 instrument. Material preparation: 1 g of BSA and 500 μL of Tween 20 were added to 1000 mL of 1×PBS and mixed uniformly. The mixture was filtered, and then subpackaged and stored. 0.1 mL of glycine solution (0.1 M, pH 2.0) was pipetted, 0.9 mL of ultrapure water was added, and the mixture was mixed uniformly. […]
Answers are plain numbers, as −log10 of the molar value.

C8-4 antibody (antibody, V domains shown) VH: EVQLLESGGGLVRPGGSLRLSCAASGFTFGSYEMNWVRQAPGKGLEWVSYISSSGETTDYADSVKGRFTVSRDNSKNLLYLQMNSLRAEDTAVYYCARDVFFFDSSGPRGAYGMDVWGQGTMVTVSS VL: DIQLTQSPSSLTASVGDRVTITCRSSQGIRSSLAWYQQKPGKPPKLLIYGASSLEGGVPSRFSGSGSGTDFTLTISSLQPEDFATYYCQQLNSFPSTFGQGTKLEIK	8.27
C8-3 antibody (antibody, V domains shown) VH: EVQLLESGGGLVRPGGSLRLSCAASGFTAGSYEMNWVRQAPGKGLEWVSYISSSGETTDYADSVKGRFTVSRDNSKNLLYLQMNSLRAEDTAVYYCARDVFFFDSSGDNGAYGMDVWGQGTMVTVSS VL: DIQLTQSPSSLTASVGDRVTITCRSSQGIRSSLAWYQQKPGKPPKLLIYGASSLEVGVPSRFSGSGSGTDFTLTISSLQPEDFATYYCQQLNSFPSTFGQGTKLEIK	8.35
C8-1 antibody (antibody, V domains shown) VH: EVQLLESGGGLVRPGGSLRLSCAASGFTFGSYEMNWVRQAPGKGLEWVSYISSSGETTDYADSVKGRFTVSRDNSKNLLYLQMNSLRAEDTAVYYCARDVFFFDSSGDNGAYGMDVWGQGTMVTVSS VL: DIQLTQSPSSLTASVGDRVTITCRSSQGIRSSLAWYQQKPGKPPKLLIYGASSLEGGVPSRFSGSGSGTDFTLTISSLQPEDFATYYCQQLASFPSTFGQGTKLEIK	7.90

Fill in pKd for each of the 3 binders listed.
1. C8-6 antibody (antibody, V domains shown) VH: EVQLLESGGGLVRPGGSLRLSCAASGFTFGSYEMNWVRQAPGKGLEWVSYISSSGETTDYADSVKGRFTVSRDNSKNLLYLQMNSLRAEDTAVYYCARDVFFFDSSGSPGAYGMDVWGQGTMVTVSS VL: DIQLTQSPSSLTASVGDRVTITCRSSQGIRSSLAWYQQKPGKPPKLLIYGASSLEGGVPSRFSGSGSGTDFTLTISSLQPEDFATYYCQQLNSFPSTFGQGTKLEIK
2. APX005M (antibody, V domains shown) VH: QVQLVESGGGVVQPGRSLRLSCAASGFSFSSTYVCWVRQAPGKGLEWIACIYTGDGTNYSASWAKGRFTISKDSSKNTVYLQMNSLRAEDTAVYFCARPDITYGFAINFWGPGTLVTVSS VL: DIQMTQSPSSLSASVGDRVTIKCQASQSISSRLAWYQQKPGKPPKLLIYRASTLASGVPSRFSGSGSGTDFTLTISSLQPEDVATYYCQCTGYGISWPIGGGTKVEIK
3. C8-9 antibody (antibody, V domains shown) VH: EVQLLESGGGLVRPGGSLRLSCAASGFTFGSYEMNWVRQAPGKGLEWVSYISSSGETTDYADSVKGRFTVSRDNSKNLLYLQMNSLRAEDTAVYYCARDVFFFDSSRPNGAYGMDVWGQGTMVTVSS VL: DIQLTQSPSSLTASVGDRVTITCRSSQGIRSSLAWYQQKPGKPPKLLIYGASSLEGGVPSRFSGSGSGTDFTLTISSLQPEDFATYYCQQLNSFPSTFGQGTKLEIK

8.04
8.20
8.03
